target: γ2δ3 TCR-hFc mutant S5 (D70N, E67Q in the Vδ3 chain) (human) (UniProt B7Z8K6); experiment: Luminex beads; TCR-hFc captured by goat anti-human Fc; antibody titrated
RESULT_TYPE: EC50 (nM)
Give just the numeric value; nM need not be written.

Find the measured EC50 of δ3-58 (antibody, V domains shown) VH: EVKLVESGGGLVQPGGSLKLSCAASGFTFSSYAMSWVRQTPEKRLEWVAYIRDGGGGTYYPDTVEGRFTISRDNAKNTLYLQMSSLKSEDTAMYYCARHPPMNDWFLYWGQGTLVTVSA VL: DIQMTQSPASLSVSVGETVTITCRASENIYSHLAWYQQKQGKSPQLLVYAATNLADGVPSRFSGSGSGTQYSLKINSLQSEDFGSYYCQHFWGTPYTFGGGTKLEIKR and report it.
0.02
